# PROTOCOL: Tested for inhibitory activity against Beta-glucosidase from Agrobacterium species
OUTCOME MEASURE: Ki

Some molecules with known Ki results, for comparison:
O=C(CCc1ccccc1)NC[C@@H]1N[C@H](CO)[C@H](O)[C@@H]1O 150 nM
O=C(NC[C@H]1N[C@H](CO)[C@H](O)[C@@H]1O)c1cccc2ccccc12 550 nM
CCN(CC)c1ccc2cc(C(=O)NC[C@H]3N[C@H](CO)[C@H](O)[C@@H]3O)c(=O)oc2c1 1.2 nM

Proceed to the following item.
Return reported Ki; argument: CCCCCCCCCCCC(=O)NC[C@H]1N[C@H](CO)[C@H](O)[C@@H]1O
100 nM
